Taken from the supplement of paper PMC7125110.

B1: glmS ribozyme (parent)
chain: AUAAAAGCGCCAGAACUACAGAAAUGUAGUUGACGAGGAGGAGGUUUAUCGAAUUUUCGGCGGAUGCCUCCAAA

Variants of: B1
Experiment: self-cleavage kobs at 2500 uM GlcN6P; higher = faster cleavage; RNA array
Details: with glucosamine-6-phosphate
This sample holds only a part of the variants without activity.
For each record, write down the corresponding self-cleavage kobs at 2500 uM GlcN6P.
Numeric only. Scale: s⁻¹

If you can, please state the reported self-cleavage kobs at 2500 uM GlcN6P value of C11U C70G .
0.000104

Try U54A A64G C70A next.
0.000536

How about this variant: C16G C71U
0.00228

Continue with U30C G63U C68G
5.6e-05

Continue with U57A U69G
3.88e-05

Follow-up item: A64U U69G
5.01e-05

What do you have for U56A C71G ?
0.000715

Another variant: C50G G62A
0.000168

Try this variant too: A42U C71U
0.000122
